experimental-system: DNA-PK (Homo sapiens, UniProt P78527)
Construct: DNA-PK was purified from HeLa cells; endogenous in cells; the endogenous enzyme was purified in house by chromatography
assay-comment: Conditions that result in 50% inhibition of DNA-PK activity
condition-notes: inhibition of DNA-PK activity in vitro

compound: O=P(O)(O)OP(=O)(O)O [Pyrophosphate]
unit-name: µM
IC50: 3000

###

experimental-system: DNA-PK (Homo sapiens)
Construct: DNA-PK was purified from HeLa cells; endogenous in cells; host or cells: HeLa S3 cells; the endogenous enzyme was purified in house by chromatography
assay-comment: Phosphorylation of synthetic peptides by purified DNA-PK (phosphocellulose paper binding method)
Format: biochemical
condition-notes: each peptide at 200 μM; calf thymus DNA 10 μg/ml; 30° C.
No end group written: not given here.

substance: EPPDSQEAFADLWKK [SEQ ID NO: 17]
PO4 incorp.: 48 pmol/min/μg of DNA-PK

substance: EPPLSEQAFADLWKK [SEQ ID NO: 20]
PO4 incorp.: 0 pmol/min/μg of DNA-PK

substance: EPPLSNEAFADLWKK [SEQ ID NO: 33]
PO4 incorp.: 0.1 pmol/min/μg of DNA-PK

substance: His Lys Lys Leu Met Phe Lys Thr Glu Gly Pro Asp Ser Asp (HKKLMFKTEGPDSD; Human p53 residues 380-393; listed as Homo sapiens) [SEQ ID NO: 31]
PO4 incorp.: 0 pmol/min/μg of DNA-PK

substance: EPPLSYEAFADLLKK [SEQ ID NO: 34]
PO4 incorp.: 2.3 pmol/min/μg of DNA-PK

###

experimental-system: DNA-PK (Homo sapiens, UniProt P78527)
Construct: DNA-PK was purified from HeLa cells; endogenous in cells; host or cells: HeLa S3 cells; the endogenous enzyme was purified in house by chromatography
assay-comment: Phosphorylation of synthetic peptides by purified DNA-PK (phosphocellulose paper binding method)
Format: biochemical
condition-notes: each peptide at 200 μM; calf thymus DNA 10 μg/ml; 30° C.
No end group written: not given here.
measure: PO4 incorp.

substance: EPPLSQETFKK [SEQ ID NO: 9]
measure: PO4 incorp.
measured-value: 15 pmol/min/μg of DNA-PK

substance: Glu Pro Pro Leu Ser Gln Glu Thr Phe Ser Asp—Lys Lys (EPPLSQETFSDKK; Human p53 residues 11-21; listed as Homo sapiens) [SEQ ID NO: 10]
measure: PO4 incorp.
measured-value: 12 pmol/min/μg of DNA-PK

substance: EPPLSEEAFADLWKK [SEQ ID NO: 32]
measure: PO4 incorp.
measured-value: 0.4 pmol/min/μg of DNA-PK

substance: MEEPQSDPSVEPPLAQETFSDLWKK [SEQ ID NO: 5]
measure: PO4 incorp.
measured-value: 5.3 pmol/min/μg of DNA-PK

substance: Ser Lys Lys Gly Gln Ser Thr Ser Arg His Lys Lys Leu Met Phe (SKKGQSTSRHKKLMF; Human p53 residues 371-385; listed as Homo sapiens) [SEQ ID NO: 30]
measure: PO4 incorp.
measured-value: 0 pmol/min/μg of DNA-PK

These measurements were taken from patent US6803203B1.
